Overview of reported percentage of EdU-negative across a group of sequences:
system: MCF7; assay: percentage of EdU-negative (G0-arrested) nuclei per well, 72 h; higher = more G0 arrest; conditions: protein concentration 0.0225 µM; reference: sequence is the full UniProt precursor, the tested protein was the secreted form or ectodomain;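 further: secreted proteins added to cultured cells, EdU pulse at the end, nuclei found by Hoechst imaging, EdU status from nuclear versus surrounding ring intensity ratio, PBS as neutral control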
Could you write the number and then its unit?

Enquiry: So what does the record say about percentage of EdU-negative for MCSTMSAPTCLAHLPPCFLLLALVLVPSDASGQSSRNDWQVLQPEGPMLVAEGETLLLRCMVVGSCTDGMIKWVKVSTQDQQEIYNFKRGSFPGVMPMIQRTSEPLNCDYSIYIHNVTREHTGTYHCVRFDGLSEHSEMKSDEGTSVLVKGAGDPEPDLWIIQPQELVLGTTGDTVFLNCTVLGDGPPGPIRWFQGAGLSREAIYNFGGISHPKETAVQASNNDFSILLQNVSSEDAGTYYCVKFQRKPNRQYLSGQGTSLKVKAKSTSSKEAEFTSEPATEMSPTGLLVVFAPVVLGLKAITLAALLLALATSRRSPGQEDVKTTGPAGAMNTLAWSKGQE [Q5JXA9] ?
Return: 28%

New cases:
Enquiry: So what does the record say about percentage of EdU-negative for "MGFNLTFHLSYKFRLLLLLTLCLTVVGWATSNYFVGAIQEIPKAKEFMANFHKTLILGKGKTLTNEASTKKVELDNCPSVSPYLRGQSKLIFKPDLTLEEVQAENPKVSRGRYRPQECKALQRVAILVPHRNREKHLMYLLEHLHPFLQRQQLDYGIYVIHQAEGKKFNRAKLLNVGYLEALKEENWDCFIFHDVDLVPENDFNLYKCEEHPKHLVVGRNSTGYRLRYSGYFGGVTALSREQFFKVNGFSNNYWGWGGEDDDLRLRVELQRMKISRPLPEVGKYTMVFHTRDKGNEVNAERMKLLHQVSRVWRTDGLSSCSYKLVSVEHNPLYINITVDFWFGA" ?
Return: 25.1%
